System: Plasmodium berghei
Assay: Screen against P. berghei liver stage (PbLuc), transformed with Luciferase, at 10uM
Format: functional, HepG2
Conditions: tested at 10 uM
The campaign covered roughly 69,000 compounds. About 8,600 (12%) showed an effect of 50% or more. What follows is part of a selection rich in strong results, with near analogues and random picks from the rest.
recorded_metric: INHIBITION (%)
Write the value in % as a bare number.

| compound | reported_value |
| --- | --- |
| Cc1cc(-c2cnc(N3CCC(O)CC3)nc2C(C)C)on1 | 59.4 |
| c1cc(NCc2ccncc2)nc(C2CCCN2)c1 (stereo not given) | 14 |
| Cc1cc(-c2cnc(N(C)C)nc2C2CCCCN2C(=O)C2CC2)on1 (stereo not given) | -11.59 |
| Cc1cc(-c2cnc(N3CCSCC3)nc2C(C)C)on1 | 50.8 |

We next turn to a different compound, shown below.
INPUT: Look up INHIBITION for this compound: CCc1nc(-c2cncnc2C2CCCNC2)no1 (stereo not given)
OUTPUT: 20.25

Measured values drawn from ChEMBL document CHEMBL4513216 for this set.
